Target: human full-length MKNK1 (Homo sapiens, UniProt Q9BUB5, T385D)
Sequence (Q9BUB5 1-424 isoform Q9BUB5-2 T344D): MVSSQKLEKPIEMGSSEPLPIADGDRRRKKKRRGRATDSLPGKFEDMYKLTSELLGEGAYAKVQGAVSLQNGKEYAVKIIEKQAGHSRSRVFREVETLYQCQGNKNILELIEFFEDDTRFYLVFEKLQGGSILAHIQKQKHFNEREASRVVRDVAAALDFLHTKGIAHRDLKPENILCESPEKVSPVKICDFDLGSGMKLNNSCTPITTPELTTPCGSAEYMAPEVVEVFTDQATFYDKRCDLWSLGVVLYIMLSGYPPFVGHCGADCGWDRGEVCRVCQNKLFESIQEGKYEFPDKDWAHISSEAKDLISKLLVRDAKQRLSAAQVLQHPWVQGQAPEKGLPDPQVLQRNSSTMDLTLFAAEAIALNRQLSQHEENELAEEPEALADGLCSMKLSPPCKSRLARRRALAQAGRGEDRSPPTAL
Test: MKNK1 kinase high ATP assay (TR-FRET)
Conditions: high ATP (2 mM), 15 min preincubation with enzyme, GST-MKNK1 (T344D)
quantity name: IC50 (µM)
Answer format: numeric, µM implied, no suffix.

INPUT: I am curious: what IC50 value has been reported for COc1cc(F)c(F)cc1Nc1ncnc2[nH]c3c(c12)CC(C(=O)NCCCS(C)(=O)=O)CC3 (racemic) [Example 161] ?
OUTPUT: 0.035

INPUT: Then what about the compound c1nc(Nc2ccc3[nH]ncc3c2)c2c3c([nH]c2n1)CCCC3 [Example 2] ?
OUTPUT: 0.027

INPUT: Then what about the compound CCNC(=O)C1CCc2[nH]c3ncnc(Nc4cc5cn[nH]c5cc4OC)c3c2C1 (racemic) [Example 218] ?
OUTPUT: 0.006

INPUT: Then what about the compound COCC1(OC)CCc2[nH]c3ncnc(Nc4cc5[nH]c(=O)[nH]c5cc4Cl)c3c2C1 (racemic) [Example 131] ?
OUTPUT: 5.7

INPUT: Then what about the compound CC(C)Oc1cc(F)ccc1Nc1ncnc2[nH]c3c(c12)CSCC3 [Example 11] ?
OUTPUT: 0.042

INPUT: Then what about the compound CC(C)Oc1cc(F)ccc1Nc1ncnc2c1c1c(n2C)CCC(C(=O)NCCCS(C)(=O)=O)C1 (racemic) [Example 25] ?
OUTPUT: 0.381

INPUT: Then what about the compound CCOC(=O)C1CCc2[nH]c3ncnc(Nc4cc(F)ccc4OC)c3c2C1 (racemic) [Example 171] ?
OUTPUT: 6.09

INPUT: Then what about the compound Clc1ccc(Nc2ncnc3[nH]c4c(c23)CCCC4)cc1Cl [Example 114] ?
OUTPUT: 1.49

INPUT: Then what about the compound O=[N+]([O-])c1ccc2c(c1)CCN2c1ncnc2[nH]c3c(c12)CCCC3 [Example 123] ?
OUTPUT: 1.55

INPUT: Then what about the compound COc1cc(Cl)c(Cl)cc1Nc1ncnc2[nH]c3c(c12)CC(C(=O)NCCCS(C)(=O)=O)CC3 (racemic) [Example 44] ?
OUTPUT: 0.006

INPUT: Then what about the compound COCC1(OC)CCc2[nH]c3ncnc(Nc4ccc(F)cc4OC(C)C)c3c2C1 (racemic) [Example 137] ?
OUTPUT: 0.773

INPUT: Then what about the compound COc1ccc(Br)cc1Nc1ncnc2[nH]c3c(c12)CCCC3 [Example 128] ?
OUTPUT: 0.313

INPUT: Then what about the compound COc1cc(F)c(Cl)cc1Nc1ncnc2[nH]c3c(c12)CC(C(=O)NCCCS(C)(=O)=O)CC3 (racemic) [Example 157] ?
OUTPUT: 0.444

INPUT: Then what about the compound O=C1OCCOc2cc(F)ccc2Nc2ncnc3[nH]c4c(c23)CC1CC4 (racemic) [Example 229] ?
OUTPUT: 3.54

INPUT: Then what about the compound COc1cc(N2CCOCC2)ccc1Nc1ncnc2[nH]c3c(c12)CC(C(=O)NCCCS(C)(=O)=O)CC3 (racemic) [Example 71] ?
OUTPUT: 10.8

INPUT: Then what about the compound CS(=O)(=O)CCCNC(=O)C1CCc2[nH]c3ncnc(Nc4ccccc4OC4CCCC4)c3c2C1 (racemic) [Example 78] ?
OUTPUT: 0.024

INPUT: Then what about the compound c1nc(Nc2ccc3[nH]ncc3c2)c2c3c([nH]c2n1)CCC3 [Example 69] ?
OUTPUT: 0.507

INPUT: Then what about the compound CN(C)C(=O)C1CCc2[nH]c3ncnc(Nc4ccccc4OC4CCCC4)c3c2C1 (racemic) [Example 188] ?
OUTPUT: 0.71

INPUT: Then what about the compound c1ccc(OC2CCOCC2)c(Nc2ncnc3[nH]c4c(c23)CCCC4)c1 [Example 130] ?
OUTPUT: 0.089

INPUT: Then what about the compound O=C(O)C1CCc2[nH]c3ncnc(N4CCc5ccccc54)c3c2C1 (racemic) [Example 185] ?
OUTPUT: 8.99

INPUT: Then what about the compound CS(=O)(=O)CCCNC(=O)C1CCc2[nH]c3ncnc(Sc4ccc5[nH]ncc5c4)c3c2C1 (racemic) [Example 146] ?
OUTPUT: 1.13

INPUT: Then what about the compound CS(=O)(=O)CCCNC(=O)C1CCc2[nH]c3ncnc(Nc4ccccc4OCC(F)F)c3c2C1 (racemic) [Example 152] ?
OUTPUT: 0.113

INPUT: Then what about the compound COc1ccc(F)cc1Nc1ncnc2[nH]c3c(c12)CC(C(=O)N1CCN(C)CC1)CC3 (racemic) [Example 196] ?
OUTPUT: 0.115

INPUT: Then what about the compound O=C(NCc1ccccc1)C1CCc2[nH]c3ncnc(N4CCc5ccccc54)c3c2C1 (racemic) [Example 209] ?
OUTPUT: 0.45

INPUT: Then what about the compound COCC1(OC)CCc2[nH]c3ncnc(Nc4cc5cn[nH]c5cc4OC(C)C)c3c2C1 (racemic) [Example 231] ?
OUTPUT: 0.05

INPUT: Then what about the compound COCC1(OC)CCc2[nH]c3ncnc(Nc4cc(Cl)ccc4OC(C)C)c3c2C1 (racemic) [Example 132] ?
OUTPUT: 0.503

INPUT: Then what about the compound O=c1[nH]c2ccc(Nc3ncnc4[nH]c5c(c34)CCCC5)cc2[nH]c1=O [Example 110] ?
OUTPUT: 12.2

INPUT: Then what about the compound COc1ccc(OC)c(Nc2ncnc3[nH]c4c(c23)CC(C(=O)NCCCS(C)(=O)=O)CC4)c1 (racemic) [Example 42] ?
OUTPUT: 0.615

INPUT: Then what about the compound CS(=O)(=O)CCCNC(=O)C1CCc2[nH]c3ncnc(Nc4ccc5[nH]ncc5c4)c3c2C1 (racemic) [Example 14] ?
OUTPUT: 0.008

* * *

Exercise: for every item that follows, state its recorded pIC50.
Biological target: human full-length MKNK1 (Homo sapiens, UniProt Q9BUB5, T385D)
Assay: MKNK1 kinase high ATP assay (TR-FRET)
Conditions: high ATP (2 mM), 15 min preincubation with enzyme, GST-MKNK1 (T344D)
As a rule, pIC50 stands for the negative log10 of the concentration, concentration in M.

INPUT: I am curious: what pIC50 value has been reported for COCC1(OC)CCc2[nH]c3ncnc(Nc4cc(Cl)c(Cl)cc4OC)c3c2C1 (racemic) ?
OUTPUT: 6.47

INPUT: Then what about the compound Nc1ccc2c(c1)CCN2c1ncnc2[nH]c3c(c12)CCCC3 ?
OUTPUT: 6.17

INPUT: Then what about the compound CC(C)Oc1cc(F)ccc1Nc1ncnc2[nH]c3c(c12)CCCC3 ?
OUTPUT: 7.37

INPUT: Then what about the compound CS(=O)(=O)CCCNC(=O)C1CCc2[nH]c3ncnc(Nc4ccc5c(c4)OCC(=O)N5)c3c2C1 (racemic) ?
OUTPUT: 6.43

INPUT: Then what about the compound CS(=O)(=O)CCCNC(=O)C1CCc2[nH]c3ncnc(Nc4ccc5c(c4)CS(=O)(=O)C5)c3c2C1 (racemic) ?
OUTPUT: 5.94

INPUT: Then what about the compound CC(C)NC(=O)C1CCc2[nH]c3ncnc(Nc4cc(Cl)ccc4OC(C)C)c3c2C1 (racemic) ?
OUTPUT: 5.98

INPUT: Then what about the compound O=c1[nH]c2ccc(Nc3ncnc4[nH]c5c(c34)CCCC5)cc2s1 ?
OUTPUT: 7.24

INPUT: Then what about the compound CS(=O)(=O)CCCNC(=O)C1CCc2[nH]c3ncnc(Nc4cc(OC(F)(F)F)ccc4F)c3c2C1 (racemic) ?
OUTPUT: 6.17

INPUT: Then what about the compound CS(=O)(=O)CCCNC(=O)C1CCc2[nH]c3ncnc(Nc4ccc5c(c4)COC5=O)c3c2C1 (racemic) ?
OUTPUT: 7.09

INPUT: Then what about the compound CCCOc1ccc(F)cc1Nc1ncnc2[nH]c3c(c12)CC(C(=O)NCCCS(C)(=O)=O)CC3 (racemic) ?
OUTPUT: 7.43

INPUT: Then what about the compound CC(C)Oc1cc(F)ccc1Nc1ncnc2[nH]c3c(c12)CCCCC3 ?
OUTPUT: 6.59

INPUT: Then what about the compound CS(=O)(=O)CCCNC(=O)C1CCc2[nH]c3ncnc(Nc4cccc(-n5cnnn5)c4)c3c2C1 (racemic) ?
OUTPUT: 5.88

INPUT: Then what about the compound COCC1(OC)CCc2[nH]c3ncnc(Nc4ccc5[nH]ncc5c4)c3c2C1 (racemic) ?
OUTPUT: 6.78

INPUT: Then what about the compound CCOC(=O)C1CCc2[nH]c3ncnc(N4CCc5ccccc54)c3c2C1 (racemic) ?
OUTPUT: 5.44

INPUT: Then what about the compound CS(=O)(=O)CCCNC(=O)C1CCc2[nH]c3ncnc(Nc4cc5cn[nH]c5cc4F)c3c2C1 (racemic) ?
OUTPUT: 7.77

* * *

Molecular target: human full-length MKNK1 (Homo sapiens, UniProt Q9BUB5, T385D)
Experiment: MKNK1 kinase high ATP assay (TR-FRET)
Settings: high ATP (2 mM), 15 min preincubation with enzyme, GST-MKNK1 (T344D)
Method: MKNK1-inhibitory activity at high ATP of compounds of the present invention after their preincubation with MKNK1 was quantified employing the TR-FRET-based MKNK1 high ATP assay as described in the following paragraphs. […]
Exercise: for every item that follows, state its recorded IC50.
Answer format: numeric, nM implied, no suffix.

INPUT: I am curious: what IC50 value has been reported for COc1cc(NS(C)(=O)=O)ccc1Nc1ncnc2[nH]c3c(c12)CCCC3 [Example 129] ?
OUTPUT: 4050

INPUT: Then what about the compound CC(C)Oc1ccc(Cl)cc1Nc1ncnc2[nH]c3c(c12)CC(F)(F)CC3 [Example 143] ?
OUTPUT: 407

INPUT: Then what about the compound COc1cc(F)ccc1Sc1ncnc2[nH]c3c(c12)CC(C(=O)NCCCS(C)(=O)=O)CC3 (racemic) [Example 147] ?
OUTPUT: 5920

INPUT: Then what about the compound COc1cc(Cl)c(Cl)cc1Nc1ncnc2[nH]c3c(c12)CC(C(=O)NC1CC1)CC3 (racemic) [Example 20] ?
OUTPUT: 6
